System: HUT
Experiment: HUT cell inhibition assay (WST-1 cell viability)
Assay type: cell-based
Conditions: HUT cells, 72-96 h, WST-1 assay, IC50 range
MEASUREMENT TYPE: IC50

[
  {
    "MOLECULE": "CN(C)CCN(C1C2CN(c3ncc(C(=O)NO)cn3)CC21)S(=O)(=O)c1ccc2ccccc2c1 (centres unmarked)",
    "IC50": "< 0.33 µM"
  },
  {
    "MOLECULE": "O=C(NO)c1cnc(N2CC3C(C2)C3NCCc2ccccc2)nc1 (centres unmarked)",
    "IC50": "< 0.33 µM"
  },
  {
    "MOLECULE": "COc1ccc(CNC2C3CN(c4ncc(C(=O)NO)cn4)CC32)cc1 (centres unmarked) [Example 26]",
    "IC50": "< 0.33 µM"
  },
  {
    "MOLECULE": "O=C(NO)c1cnc(N2CC3C(CNCc4ccc5cc(F)ccc5n4)C3C2)nc1 (centres unmarked)",
    "IC50": "0.331 to 3.3 µM"
  },
  {
    "MOLECULE": "O=C(NO)c1cnc(N2CC3C(C2)C3NCc2ccccc2)nc1 (centres unmarked)",
    "IC50": "< 0.33 µM"
  },
  {
    "MOLECULE": "CC(CNC1C2CN(c3ncc(C(=O)NO)cn3)CC21)c1ccccc1 (centres unmarked)",
    "IC50": "< 0.33 µM"
  }
]

Quick request: IC50 for each listed item, please.
1. COc1ccc(CN2CC3CN(c4ncc(C(=O)NO)cn4)CC3C2)cc1 (centres unmarked)
2. CC(CCNC1C2CN(c3ncc(C(=O)NO)cn3)CC21)c1ccccc1 (centres unmarked)

< 0.33 µM
< 0.33 µM

###

Would you kindly list IC50 for each of these compounds?
Test system: HUT
Assay: HUT cell inhibition assay (WST-1 cell viability)
Format: cell-based
Settings: HUT cells, 72-96 h, WST-1 assay, IC50 range

Before answering, review these 3 worked examples.
[
  {
    "COMPOUND": "O=C(NO)c1cnc(N2CC3C(C2)C3Nc2nccc3ccccc23)nc1 (centres unmarked)",
    "MEASURED VALUE": "< 0.33 µM"
  },
  {
    "COMPOUND": "O=C(NO)c1cnc(NC2C3CN(S(=O)(=O)c4ccc5ccccc5c4)CC32)nc1 (centres unmarked)",
    "MEASURED VALUE": "0.331 to 3.3 µM"
  },
  {
    "COMPOUND": "O=C(NO)c1cnc(N2CC3C(CNCc4ccc(Cl)cc4)C3C2)nc1 (centres unmarked)",
    "MEASURED VALUE": "< 0.33 µM"
  }
]

Fill in IC50 for each of the 7 compounds listed.
1. O=C(NO)c1cnc(N2CC3C(C2)C3NC(=O)c2cccs2)nc1 (centres unmarked)
2. O=C(NO)c1cnc(N2CC3C(C2)C3N2CCOCC2)nc1 (centres unmarked)
3. O=C(NO)c1cnc(N2CC3C(C2)C3N2Cc3ccccc3C2)nc1 (centres unmarked)
4. O=C(NO)c1cnc(N2CC3C(C2)C3NCc2ccc(Br)cc2)nc1 (centres unmarked)
5. O=C(NO)c1cnc(N2CC3C(C2)C3NCc2ccc(F)cc2)nc1 (centres unmarked)
6. O=C(NO)c1cnc(N2CC3C(C2)C3N(Cc2cccnc2)Cc2ccc3ccccc3c2)nc1 (centres unmarked)
7. O=C(NO)c1cnc(N2CC3C(C2)C3NC(=O)c2ccccc2)nc1 (centres unmarked)

1. 0.331 to 3.3 µM
2. 0.331 to 3.3 µM
3. < 0.33 µM
4. < 0.33 µM
5. < 0.33 µM
6. 0.331 to 3.3 µM
7. 0.331 to 3.3 µM

Could you tell me IC50 for each of these compounds? They are listed below.
1. CCN(CC)CCN(Cc1ccc2ccccc2c1)C1C2CN(c3ncc(C(=O)NO)cn3)CC21 (centres unmarked)
2. CCN(CC)CCC(=O)N(Cc1ccc2ccccc2c1)C1C2CN(c3ncc(C(=O)NO)cn3)CC21 (centres unmarked)
3. O=C(NO)c1cnc(N2CC3CN(Cc4cc(F)cc(F)c4)CC3C2)nc1 (centres unmarked)
4. O=C(NO)c1cnc(N2CC3C(C2)C3N(Cc2ccc3ccccc3c2)Cc2ccc3ccccc3c2)nc1 (centres unmarked)
5. O=C(NO)c1cnc(N2CC3C(C2)C3N(CCN2CCCC2=O)S(=O)(=O)c2ccc3ccccc3c2)nc1 (centres unmarked)
6. O=C(CCCCCc1ccccc1)NC1C2CN(c3ncc(C(=O)NO)cn3)CC21 (centres unmarked)
7. O=C(NO)c1cnc(N2CC3C(C2)C3NCc2cc(F)cc(F)c2)nc1 (centres unmarked)
8. O=C(NO)c1cnc(N2CC3C(C2)C3N(CCN2CCCC2)S(=O)(=O)c2ccc3ccccc3c2)nc1 (centres unmarked)

["< 0.33 µM", "< 0.33 µM", "< 0.33 µM", "> 3.3 µM", "0.331 to 3.3 µM", "< 0.33 µM", "< 0.33 µM", "< 0.33 µM"]

Value sought for every listed compound: IC50.
1. CN(C)CCCN(C1C2CN(c3ncc(C(=O)NO)cn3)CC21)S(=O)(=O)c1ccc2ccccc2c1 (centres unmarked)
2. COc1ccc2c(c1)CCC2N1CC2CN(c3ncc(C(=O)NO)cn3)CC2C1 (centres unmarked)

1. < 0.33 µM
2. < 0.33 µM

###

System: HeLa cells
Assay: HeLa cell inhibition assay (SRB cell viability)
Format: cell-based
Details: Homo sapiens, HeLa, 72 h, IC50 range
Provide the recorded IC50 for the entries that follow.

Reference set, count: 3
[
  {
    "MOLECULE": "O=C(NO)c1cnc(N2CC3C(C2)C3N2Cc3ccccc3C2)nc1 (stereo not shown)",
    "IC50": "331 to 3300 nM"
  },
  {
    "MOLECULE": "O=C(Cc1ccsc1)NC1C2CN(c3ncc(C(=O)NO)cn3)CC21 (stereo not shown)",
    "IC50": "331 to 3300 nM"
  },
  {
    "MOLECULE": "O=C(NO)c1cnc(N2CC3C(C2)C3N2Cc3ccccc3CC2=O)nc1 (stereo not shown)",
    "IC50": "331 to 3300 nM"
  }
]

Please examine the following record next.
Give its IC50 value. Item: O=C(NO)c1cnc(N2CC3C(C2)C3NCC2CCCCC2)nc1 (stereo not shown)
< 330 nM

###

Tested on: HUT
Assay: HUT cell inhibition assay (WST-1 cell viability)
Format: cell-based
Conditions: HUT cells, 72-96 h, WST-1 assay, IC50 range
pIC50: −log10 of the molar value.
MEASUREMENT TYPE: pIC50

As a guide, the following entries are already answered.
[
  {
    "COMPOUND": "O=C(NO)c1cnc(N2CC3C(C2)C3N2CCCCC2)nc1 (stereo not drawn)",
    "TARGET": "HUT",
    "MEASUREMENT TYPE": "pIC50",
    "MEASURED VALUE": "5.48 to 6.48"
  },
  {
    "COMPOUND": "O=C(NO)c1cnc(N2CC3C(C2)C3NCc2ccc(OC(F)(F)F)cc2)nc1 (stereo not drawn)",
    "TARGET": "HUT",
    "MEASUREMENT TYPE": "pIC50",
    "MEASURED VALUE": "> 6.48"
  }
]

Next up:
pIC50 lookup needed for CC(=O)N(Cc1ccc2ccccc2c1)C1C2CN(c3ncc(C(=O)NO)cn3)CC21 (stereo not drawn) , thanks.
> 6.48

###

For each entry below, report its IC50 value.
System: HUT
Assay: HUT cell inhibition assay (WST-1 cell viability)
Type: cell-based
Details: HUT cells, 72-96 h, WST-1 assay, IC50 range

Solved entries:
[
  {
    "COMPOUND": "O=C(Cc1ccsc1)NC1C2CN(c3ncc(C(=O)NO)cn3)CC21 (stereo not drawn)",
    "MEASURED VALUE": "0.331 to 3.3 µM"
  },
  {
    "COMPOUND": "N#Cc1ccc(CNC2C3CN(c4ncc(C(=O)NO)cn4)CC32)cc1 (stereo not drawn)",
    "MEASURED VALUE": "< 0.33 µM"
  },
  {
    "COMPOUND": "O=C(CCCOc1ccccc1)NC1C2CN(c3ncc(C(=O)NO)cn3)CC21 (stereo not drawn)",
    "MEASURED VALUE": "0.331 to 3.3 µM"
  },
  {
    "COMPOUND": "O=C(NO)c1cnc(N2CC3C(C2)C3NC(=O)c2ccc3ccccc3c2)nc1 (stereo not drawn)",
    "MEASURED VALUE": "< 0.33 µM"
  },
  {
    "COMPOUND": "O=C(NO)c1cnc(N2CC3C(CNCc4ccccc4)C3C2)nc1 (stereo not drawn)",
    "MEASURED VALUE": "< 0.33 µM"
  }
]

Hey, quick one: what's IC50 for each of these?
1. O=C(NO)c1cnc(N2CC3C(C2)C3NCC2CCCCC2)nc1 (stereo not drawn)
2. O=C(NO)c1cnc(N2CC3CN(C(=O)CCCOc4ccccc4)CC3C2)nc1 (stereo not drawn)
3. O=C(NO)c1cnc(N2CC3C(C2)C3NC(=O)c2ccc3sccc3c2)nc1 (stereo not drawn)
4. O=C(NO)c1cnc(N2CC3C(C2)C3NC(c2ccccc2)C(F)(F)F)nc1 (stereo not drawn)

1: < 0.33 µM; 2: 0.331 to 3.3 µM; 3: < 0.33 µM; 4: < 0.33 µM
